Target: UniProt P35462
Sequence (P35462 whole entry): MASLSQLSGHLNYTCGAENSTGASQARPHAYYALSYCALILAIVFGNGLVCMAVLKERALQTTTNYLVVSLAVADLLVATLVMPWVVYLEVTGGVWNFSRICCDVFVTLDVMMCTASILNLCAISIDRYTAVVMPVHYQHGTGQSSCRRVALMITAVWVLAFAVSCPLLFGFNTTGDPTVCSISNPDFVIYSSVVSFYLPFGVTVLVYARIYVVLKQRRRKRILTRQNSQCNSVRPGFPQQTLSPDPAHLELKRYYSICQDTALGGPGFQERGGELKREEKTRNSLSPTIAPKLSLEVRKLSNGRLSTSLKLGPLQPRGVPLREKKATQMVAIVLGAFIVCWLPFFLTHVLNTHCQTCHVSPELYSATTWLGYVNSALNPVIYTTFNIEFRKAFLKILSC
pKi: −log10 of the molar value.
readout-type: pKi

Q) GET /values?readout=pKi&item= Cc1nc(-c2ccc(-c3ccc(C(=O)N4CCc5cc6c(cc54)C4(CCN(C)CC4)CO6)cc3)c(C)c2)no1
A) < 6.00

* * *

Record: Ki reported on 5-hydroxytryptamine receptor 1B (Homo sapiens, UniProt P28222).
Sequence (P28222 whole entry): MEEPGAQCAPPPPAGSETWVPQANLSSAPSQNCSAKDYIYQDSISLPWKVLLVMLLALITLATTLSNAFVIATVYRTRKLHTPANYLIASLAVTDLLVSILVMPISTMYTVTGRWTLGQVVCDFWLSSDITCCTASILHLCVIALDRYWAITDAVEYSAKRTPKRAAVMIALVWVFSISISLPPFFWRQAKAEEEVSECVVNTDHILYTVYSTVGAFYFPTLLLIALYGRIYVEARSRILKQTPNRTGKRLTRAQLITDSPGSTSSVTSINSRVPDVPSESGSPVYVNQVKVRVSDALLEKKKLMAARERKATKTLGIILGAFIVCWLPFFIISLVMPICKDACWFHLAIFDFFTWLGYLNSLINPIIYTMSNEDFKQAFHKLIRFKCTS
Answers are plain numbers, in nM.

Sample answers from the record:
* Cc1nc(-c2ccc(-c3ccc(C(=O)Nc4ccc5c(c4)N(CCN(C)C)CCO5)cc3)c(C)c2)no1 | 2.51
* Cc1nc(-c2ccc(-c3ccc(C(=O)Nc4ccc5c(c4)C4(CCN(C)CC4)CO5)cc3)c(C)c2)no1 | 31.6

Now for another entry.
Q) GET /values?readout=Ki&item= COc1ccc(NC(=O)c2ccc(-c3ccc(-c4noc(C)n4)cc3C)cc2)cc1CCCN(C)C
A) 3.16
